Test system: MS2 coat protein
Experiment: apparent KD of MS2 coat protein; designed switch direction (-1 OFF switch, 1 ON switch): -1; higher = weaker reporter binding
Assay context: Eterna round: R95; input ligand: microRNA oligo, concentration not stated
Classes by apparent KD of MS2 coat protein: low end: < 20 nM; middle: ≥ 20 nM and < 50 nM; high end: ≥ 50 nM

# example entries with known answers
# Macromolecule sequence, Label class
data = [
    ("AGUAACAGAGGAUAUACUGUUUUAUGUGUUUAUUAUUUUGAACAUGAGGAUCACCCAUGUAGAAGGCUGAAUAA [JMF 90] (puzzle: Exclusion 2)", "middle"),
    ("UUUUUGUUUUUGUUUUUUGACAUGAGGAUCACCCAUGUCACGAGCAGAUCUUCAUGCAAGCUUUUUGCUCGUCUUAU [Sensor v3 - Turn-off variant 1 - 39] (puzzle: Sensor v3, turn-off variant 1)", "middle"),
]

For GAGACACAUGAGGAUCACCCAUGUGAGGAUAUGCGAAGGACCAAAUUAAGAAUUAAAGGCAGAAGGCACAUAAA [Exclusion 1 V4] (puzzle: Exclusion 1) , which apparent KD of MS2 coat protein bin applies?
middle

For AAGAAACAUGAGGAUCACCCAUGUGAGGAUAUGAUGAAGAAAAGAAAAGAAAGAAGAGUCAGAAGGCACAAAGG [salish99-ex1_r3_064] (puzzle: Exclusion 1) , which apparent KD of MS2 coat protein bin applies?
high end
